Hey, just so you know, these numbers are from ChEMBL document CHEMBL5236559.

Reported values of pIC50 for individual entries
- Test system: HepG2
- Test Summary: Cytotoxicity against human HepG2 cells assessed as reduction in cell viability incubated for 48 hrs by MTT assay
- Format: functional, cell-based
- Condition: HepG2, 48 h
pIC50: −log10 of the molar value.
Test Readout: pIC50

compound_smiles=NCCCCCC(=O)Nc1cccc([As]2SCCCS2)c1 value_measured=5.26
compound_smiles=NCCCCCC(=O)Nc1ccccc1[As]1SCCCS1 value_measured=5.07
compound_smiles=NCCCCCC(=O)Nc1ccc([As]2SCCCS2)cc1 value_measured=5.27

====

- System: HeLa
- Test Summary: Cytotoxicity against human HeLa cells assessed as reduction in cell viability incubated for 48 hrs by MTT assay
- Assay type: functional, cell-based
Test Readout: IC50

compound_smiles=NCCCCCC(=O)Nc1ccccc1[As]1SCCCS1 test_readout=IC50 value_measured="> 10 µM"
compound_smiles=NCCCCCC(=O)Nc1cccc([As]2SCCCS2)c1 test_readout=IC50 value_measured="> 10 µM"
compound_smiles=NCCCCCC(=O)Nc1ccc([As]2SCCCS2)cc1 test_readout=IC50 value_measured="> 10 µM"
